// data source = patent US8569336B2

Target Or System: purified catalytic domain of recombinant human TACE (rhTACEc) (Homo sapiens, UniProt P78536, N452Q/S266A)
Construct: 6xHis (C); made in house; host or cells: baculovirus/Hi5 insect cells
Sequence (P78536 215-477 S266A/N452Q): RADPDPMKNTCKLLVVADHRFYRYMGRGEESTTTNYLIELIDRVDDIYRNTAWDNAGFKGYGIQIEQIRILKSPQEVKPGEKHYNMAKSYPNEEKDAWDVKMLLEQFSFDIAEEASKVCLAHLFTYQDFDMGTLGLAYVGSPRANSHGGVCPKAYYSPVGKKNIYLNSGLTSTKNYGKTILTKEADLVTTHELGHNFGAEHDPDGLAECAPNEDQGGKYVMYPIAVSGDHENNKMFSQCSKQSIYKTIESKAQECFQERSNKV
Protocol Summary: TACE kinetic assay: cleavage of internally quenched peptide substrate TNF-FRET 2 (Ki)
Type: biochemical
Measurement Context: TNF-FRET 2 substrate, read-out: Ki
pKi: −log10 of the molar value.

Smiles Structure: COc1ccc2c(c1F)C(=O)N(C[C@@]1(c3cc4nc(-c5ccc(N(C)C)nc5)ccc4o3)NC(=O)NC1=O)C2
pKi: 8.83
//
Smiles Structure: COc1ccc2c(c1)C(=O)N(C[C@@]1(c3cc4nc(N5C[C@H](O)CC5=O)ccc4o3)NC(=O)NC1=O)C2
pKi: 9.26
//
Smiles Structure: COc1ccc2c(c1)C(=O)N(C[C@@]1(c3cc4cnc(-c5cn[nH]c5)cc4o3)NC(=O)NC1=O)C2
pKi: 9.25
//
Smiles Structure: COc1ccc2c(c1)C(=O)N(C[C@@]1(c3cc4cc(-c5ccccc5F)ncc4o3)NC(=O)NC1=O)C2
pKi: 9.15
//
Smiles Structure: CCNc1nnc(-c2ccc3oc([C@]4(CN5Cc6ccc(OC)c(F)c6C5=O)NC(=O)NC4=O)cc3n2)o1
pKi: 9.09
//
Smiles Structure: COc1ccc2c(c1)C(=O)N(C[C@@]1(c3cc4nc(N5CCNC5=O)ccc4o3)NC(=O)NC1=O)C2
pKi: 9.36
//
Smiles Structure: COc1ccc2c(c1)C(=O)N(C[C@@]1(c3cc4nc(Nc5c(C)cnn5C)ccc4o3)NC(=O)NC1=O)C2
pKi: 9.12
